Test system: rodent lifetime carcinogenesis bioassay, tumor incidence TD50
Test: carcinogenic potency in animals, long-term in vivo studies, CPDB compilation (AID 1745844)
Conditions: rat; strain Wistar; males; by gavage; site: any site (literature study); lesion: several types; types named in the paper; dosed 104 weeks; study length 104 weeks
assay-readout: TD50 (mg/kg/day)
State just the number; it will be interpreted in mg/kg/day.

I'd like to know its TD50. The compound in question is ClCC1CO1 (stereo unspecified) 4.83

====

System: rodent lifetime carcinogenesis bioassay, tumor incidence TD50
Experiment: carcinogenic potency in animals, long-term in vivo studies, CPDB compilation (AID 1745844)
Details: rat; strain Fischer 344; males; in drinking water; site: liver; lesion: several types; types named in the paper; dosed 30 weeks; study length 95 weeks
assay-readout: TD50

I'd like to know its TD50. The compound in question is CCN=[N+](C)[O-] 11.5 mg/kg/day
